# Tested on: pigweed (Amaranthus retroflexus)
# Experiment description: Test C postemergence
# Assay type: in vivo
# Reported conditions: Rate 125 g/ha, scale 0 to 100, 0 no effect, 100 complete control
Provide the recorded Plant response rating, Pigweed for the entries that follow.
// print number alone

Query string: Could you share which Plant response rating, Pigweed value was measured for CCC(CC)c1ccn(C2SCN(c3cccc(C(F)(F)F)c3)C2=O)n1 (stereo not drawn) [Compound 25] ?
Result string: 90

Query string: Now consider CC(C)(C)c1ccn(C2SCN(c3cccc(OC(F)F)c3)C2=O)n1 (stereo not drawn) and answer again.
Result string: 60

Query string: Now consider CCCC(C)c1ccn(C2OCN(c3cccc(OC(F)(F)F)c3)C2=O)n1 (stereo not drawn) .
Result string: 70

Query string: Next up: CCC(C)c1ccn(C2SCN(c3cccc(OC(F)(F)F)c3)C2=O)n1 (stereo not drawn)
Result string: 0

Query string: Query CCC(C)c1ccn(C2CCN(c3ccc(C)c(OC)c3)C2=O)n1 (stereo not drawn) next
Result string: 40

Query string: Another compound to check: CCC(CC)c1ccn(C2SCN(c3cccc(C(F)(F)F)c3)C2=O)n1 (stereo not drawn) [Compound 21]
Result string: 70

Query string: Now try CC(C)(C)c1ccn(C2SCN(c3cccc(OC(F)(F)F)c3)C2=O)n1 (stereo not drawn) .
Result string: 80

Query string: Try this compound too: CCC(C)c1ccn(C2SCN(c3cccc(C(F)(F)F)c3)C2=O)n1 (stereo not drawn)
Result string: 70

Query string: Param item: CCC(CC)c1ccn(C2CCN(c3ccc(C)c(OC)c3)C2=O)n1 (stereo not drawn)
Result string: 0

====

# Tested on: Surinam grass (Brachiaria decumbens)
# Experiment description: Test B preemergence
# Assay type: in vivo
# Reported conditions: preemergence; Rate 125 g/ha; scale 0 to 100, 0 no effect, 100 complete control
Quantity measured: Plant response rating, Surinam grass
Answer with a bare number; do not write a unit.

Query string: What does the data say about its Plant response rating, Surinam grass? Entry: CC(C)(C)c1ccn(C2SCN(c3cccc(OC(F)F)c3)C2=O)n1 (centres unmarked)
Result string: 70

Query string: Repeat for the following compound: O=C1C(n2ccc(C3CCC3)n2)SCN1c1cccc(C(F)(F)F)c1 (centres unmarked)
Result string: 0

Query string: What do you have for CC(C)(C)c1ccn(C2CCN(c3cccc(Cl)c3)C2=O)n1 (centres unmarked) ?
Result string: 0

Query string: What do you have for O=C1C(n2cccn2)SCN1c1cccc(C(F)(F)F)c1 (centres unmarked) ?
Result string: 0

Query string: // same read-out, input: CC(C)(C)c1ccn(C2CCN(c3cccc(C(F)(F)F)c3)C2=S)n1 (centres unmarked)
Result string: 30

Query string: Another compound: CC(C)(C)c1ccn(C2SCN(c3cccc(C(F)(F)F)c3)C2=O)n1 (centres unmarked)
Result string: 0

Query string: Try O=C1C(n2ccc(C3CC3)n2)CCN1c1cccc(C(F)(F)F)c1 (centres unmarked) next.
Result string: 20

Query string: Try this compound next: Cc1ccc(N2CCC(n3ccc(C(C)(C)C)n3)C2=O)cc1Br (centres unmarked)
Result string: 0

Query string: Now try CC1(C)CCc2cn(C3CCN(c4cccc(C(F)(F)F)c4)C3=O)nc21 (centres unmarked) .
Result string: 0

Query string: How about CCC(C)c1ccn(C2OCN(c3cccc(C(F)(F)F)c3)C2=O)n1 (centres unmarked) ?
Result string: 20

Query string: Then what about the compound CC1CCc2cn(C3CCN(c4cccc(C(F)(F)F)c4)C3=O)nc21 (centres unmarked) ?
Result string: 0

====

# System: crabgrass (Digitaria sanguinalis)
# Experiment description: Test B preemergence
# Format: in vivo
# Reported conditions: Preemergence, Rate 500 g/ha; scale 0 to 100, 0 no effect, 100 complete control
Quantity measured: Plant response rating, Crabgrass
Give the figure by itself; no unit, no explanation.

Query string: Can you look up Plant response rating, Crabgrass on crabgrass (Digitaria sanguinalis) for CC(C)(C)c1ccn(C2CCN(c3ccc(F)c(Br)c3)C2=O)n1 (stereo not shown) ?
Result string: 100

Query string: Same for COc1cc(N2CCC(n3ccc(C(C)C)n3)C2=O)ccc1Br (stereo not shown)
Result string: 100

Query string: Next: CCCC(C)c1ccn(C2CCN(c3ccc(Cl)c(OC)c3)C2=O)n1 (stereo not shown)
Result string: 100

Query string: Try CC(C)(C)c1ccn(C2CCN(c3cccc(S(C)(=O)=O)c3)C2=O)n1 (stereo not shown) next.
Result string: 90

====

# System: yellow nutsedge (Cyperus esculentus)
# Experiment description: Test C preemergence
# Format: in vivo
# Reported conditions: Rate 62 g/ha; scale 0 to 100, 0 no effect, 100 complete control
# From the text: […]
Could you please report measured Plant response rating, Nutsedge for the items listed next?
Provide a numeric answer; units are not to be included.

Query string: API: value(readout=Plant response rating, Nutsedge, system=yellow nutsedge (Cyperus esculentus)) for record CC(C)(C)c1ccn(C2CCN(c3cccc(Br)c3)C2=O)n1 (centres unmarked)
Result string: 0

Query string: Now the molecule CCOC(=O)c1cccc(N2CCC(n3ccc(C(C)(C)C)n3)C2=O)c1 (centres unmarked)
Result string: 0

Query string: Entry to check: CC(C)(C)c1ccn(C2CCN(c3cccc(OC(F)F)c3)C2=O)n1 (centres unmarked)
Result string: 0

Query string: Subsequent entry: O=C1C(n2ccc(C3CCC3)n2)SCN1c1cccc(OC(F)(F)F)c1 (centres unmarked)
Result string: 0

Query string: Also CC(C)(C)c1ccn(C2SCN(c3cccc(OC(F)(F)F)c3)C2=O)n1 (centres unmarked) , if possible.
Result string: 20

Query string: Then CCC(CC)c1ccn(C2SCN(c3cccc(C(F)(F)F)c3)C2=O)n1 (centres unmarked) ?
Result string: 50

Query string: Likewise for O=C1C(n2ccc(C3CC3)n2)OCN1c1cccc(C(F)(F)F)c1 (centres unmarked) ?
Result string: 50

Query string: Entry O=C1C(n2ccc(C3CCC3)n2)SCN1c1cccc(C(F)(F)F)c1 (centres unmarked) please
Result string: 20

Query string: Likewise for COc1cc(OC)cc(N2CCC(n3ccc(C(C)(C)C)n3)C2=O)c1 (centres unmarked) ?
Result string: 0

Query string: What would you report for O=C1C(n2ccc(C3CC3)n2)CCN1c1cccc(C(F)(F)F)c1 (centres unmarked) ?
Result string: 0

Query string: // query: CCC(C)c1ccn(C2SCN(c3cccc(OC(F)(F)F)c3)C2=O)n1 (centres unmarked)
Result string: 0

Query string: Thanks! And CC1(c2ccn(C3OCN(c4cccc(C(F)(F)F)c4)C3=O)n2)CC1 (centres unmarked) ?
Result string: 0

Query string: What would you report for O=C1C(n2ccc(C3CCCCC3)n2)SCN1c1cccc(C(F)(F)F)c1 (centres unmarked) ?
Result string: 0

Query string: Repeat with CC1(c2ccn(C3SCN(c4cccc(C(F)(F)F)c4)C3=O)n2)CC1 (centres unmarked)
Result string: 0

====

# Test system: rice (Oryza saliva)
# Experiment description: Test C flooded paddy test
# Format: in vivo
# Reported conditions: flooded paddy test, Rate 250 g/ha; scale 0 to 100 (0 no effect, 100 complete control)
Would you mind telling me the reported Plant response rating, Rice of each entry?
Lab note: jot the number down without any unit.

Query string: Quick one: Plant response rating, Rice for CCC(C)c1ccn(C2CCN(c3ccc(F)c(C(F)(F)F)c3)C2=O)n1 (stereo not shown) ?
Result string: 20

Query string: Same again, this time with CCC(CC)c1ccn(C2CCN(c3ccc(Br)c(OC)c3)C2=O)n1 (stereo not shown)
Result string: 50

Query string: Also need Cc1cc(C)nc(N2CCC(n3ccc(C(C)(C)C)n3)C2=O)c1 (stereo not shown) , thanks.
Result string: 30

Query string: Cool, now COc1cc(N2CCC(n3ccc(C(C)(C)C)n3)C2=O)ccc1Br (stereo not shown)
Result string: 30

====

# Tested on: smallflower flatsedge (Cyperus difformis)
# Experiment description: Test C flooded paddy test
# Format: in vivo
# Reported conditions: Flooded Paddy; Rate 250 g/ha; scale 0 to 100, 0 no effect, 100 complete control
Quantity measured: Flatsedge plant response rating
Reply with the value as a number alone.

Query string: Sample CCOc1cccc(N2CCC(n3ccc(C(C)(C)C)n3)C2=O)c1 (centres unmarked) — what was its Flatsedge plant response rating?
Result string: 90

Query string: // repeat for CCCCC(CCCC)c1ccn(C2OCN(c3cccc(OC(F)(F)F)c3)C2=O)n1 (centres unmarked) and report
Result string: 0

Query string: Subsequent entry: CCC(C)c1ccn(C2SCN(c3cccc(OC(F)(F)F)c3)C2=O)n1 (centres unmarked) [Compound 32]
Result string: 100

Query string: Here is the next molecule: CC(C)c1ccn(C2OCN(c3cccc(OC(F)(F)F)c3)C2=O)n1 (centres unmarked)
Result string: 100

Query string: Also check CCC(CC)c1ccn(C2SCN(c3cccc(C(F)(F)F)c3)C2=O)n1 (centres unmarked)
Result string: 90

====

I'd be grateful if you could share measured Plant response rating, Barnyardgrass for these entries.
# Tested on: barnyardgrass (Echinochloa crus-galli)
# Experiment description: Test C flooded paddy test
# Format: in vivo
# Reported conditions: flooded paddy test, Rate 125 g/ha; scale 0 to 100 (0 no effect, 100 complete control)
Reply with the value as a number alone.

Query string: Field request: Plant response rating, Barnyardgrass | item: CCCCC(CCCC)c1ccn(C2SCN(c3cccc(C(F)(F)F)c3)C2=O)n1 (centres unmarked) [Compound 116]
Result string: 0

Query string: Try this compound too: CCC(C)Oc1cccc(N2CCC(n3ccc(C(C)(C)C)n3)C2=O)c1 (centres unmarked) [Compound 127]
Result string: 0

Query string: Same question, CCC(C)c1ccn(C2OCN(c3cccc(OC(F)(F)F)c3)C2=O)n1 (centres unmarked) [Compound 67] this time
Result string: 70

Query string: Would you kindly repeat that for CSc1cccc(N2CCC(n3ccc(C(C)(C)C)n3)C2=O)c1 (centres unmarked) [Compound 86] ?
Result string: 30

Query string: Again, but for CCC(C)c1ccn(C2CCN(c3cccc(OC(C)C)c3)C2=O)n1 (centres unmarked) [Compound 83]
Result string: 70
